The reported numbers originate from patent US20160207996A1.

ScFv binding ELISA signal reference
- TARGET OF ASSAY: T1, Nt-GCGR-hFc (human, UniProt P47871 26-136)
- T1 construct: domain: N-terminal domain; also called Nt-GCGR-Fc; recombinant N-terminal domain of GCGR; not shown: hFc
- T1 sequence (P47871 26-136): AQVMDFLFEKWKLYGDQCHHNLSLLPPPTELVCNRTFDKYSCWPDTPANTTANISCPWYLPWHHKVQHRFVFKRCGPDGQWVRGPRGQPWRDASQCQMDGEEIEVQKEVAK
- EXPERIMENT: scFv binding ELISA, periplasmic extract on coated Nt-GCGR

BINDER	ScFv binding ELISA signal
scFv D1 (scFv) QVQLQESGGGLVQPGGSLRLSCAASGFTFSWYAMSWVRQGPGKGLEWVSGINGGGGSTSYEDSVKGRFTISRDNAKNTLYLEMNSLKPEDTAVYYCARYSDGYSGSYTYTDMDYWGKGTLVSVSSQAVVTQEPSLSVSPGGTVTLTCGLNSGSVTNGNYPGWYQQTPGQAPRALIYSTNSRHSGVPGRYSGSISGNKAALTITGAEPEDEADYYCALWQAAGTVVFGGGTHLTVLG	0.1
scFv D3 (scFv) QVQVQESGGGLVQPGGSLRLSCATSGFTFSNYYMSWVRQAPGKGPEWVSSIYSDLSTTYYADSVKGRFTISRDRAKNTLYLQMNSLKSEDTAVYYCARLSTVAGMDYWGKGTLVTVSSSYELTQSPSVSVALRQTAKITCGGNDIESKSAQWYQQKPDQAPVLVIYADDRRPSEIPERFSGSNSGDTATLTISGAQAEDEADYYCQVWDSSANAAVFGGGTHLTVLG	0.987
